Hi there, I'd appreciate the recorded composite z-score for every entry that follows.
STUDY_SYSTEM: Torsin-1A-interacting protein 1 (Homo sapiens)
EXPERIMENT_NOTES: LAP1 binders from COS7 cell lysate, primary screen, small-molecule microarray, 635/667 nm fluorescence (AID 1116)
CONDITION_PARAMETERS: COS7-hLAP1 lysate binding, 635 nm fluorescence, higher = more signal

# composite z-score of `COc1cc(Cc2cc3c(c(CCc4ccccc4)n2)[Si](C(C)C)(C(C)C)OC3)cc(OC)c1OC` = -0.214

Form: compound = `COCCOC(=O)N1C(=O)[C@@]2(c3cc(C#CCNC(N)=O)ccc31)[C@H](c1ccc(OCCO)cc1)N1[C@H](c3ccccc3)[C@H](c3ccccc3)OC(=O)[C@H]1[C@@H]2C(=O)Nc1nc2ccccc2s1` ; composite z-score = 0.114

Per the records, this compound ( `CC(C)[Si](OCC[C@H]1O[C@]2(C(=O)N(Cc3ccccc3)c3ccccc32)[C@@H](C)[C@@H]1[Si](C)(C)O)(C(C)C)C(C)C` ) has composite z-score equal to 0.153
